# Experimental Target: BRAF-MEK-ERK cascade [BRAF-MEK-ERK 캐스케이드]
# Assay Comment: BRAF-MEK-ERK cascade assay (TR-FRET, recombinant enzymes)
# Condition Label: mean ± SEM, n=3; 100 μM ATP; 45 min pre-incubation, 90 min kinase reaction
pIC50: −log10 of the molar value.
Observed Property: pIC50

>>> numeric_readout("O=S(=O)(Nc1c(Nc2ccc(I)cc2F)c(F)c(F)c2ccoc12)C1(C[C@H](O)CO)CC1 (single isomer, unassigned)")
8.70
>>> numeric_readout("O=S(=O)(Nc1c(Nc2ccc(I)cc2F)c(F)c(F)c2ccoc12)C1(C[C@@H](O)CO)CC1 (single isomer, unassigned)")
8.80
>>> numeric_readout("O=S(=O)(Nc1c(Nc2ccc(I)cc2F)c(F)c(F)c2ccoc12)C1(CC(O)CO)CC1 (racemic)")
8.68
